Origin of values: ChEMBL document CHEMBL1641465

- EXPERIMENT DESCRIPTION: Half life in rat at 1 mg/kg, iv
- Type: ADME, organism-based
- Parameters: dose 1 mg/kg, route intravenous
- TEST CONTEXT: in vivo
QUANTITY MEASURED: half-life (min)
Kindly answer with a numeric value in min, unit omitted.

Query: // lookup half-life for `CNC(=O)c1cccc(F)c1Nc1nc(Nc2ccc3c(c2)OCCCN3)ncc1Cl`
Result: 18

# context switch: different compound, same half-life
Query: // lookup half-life for `CCOC(=O)N1CCCOc2cc(Nc3ncc(Cl)c(Nc4c(F)cccc4C(=O)NC)n3)ccc21`
Result: 72

====

- EXPERIMENT DESCRIPTION: Clearance in rat at 1 mg/kg, iv
- Type: ADME, organism-based
- Design: dose 1 mg/kg, route intravenous
- TEST CONTEXT: in vivo
QUANTITY MEASURED: clearance (mL/min/kg)
Kindly answer with a numeric value in mL/min/kg, unit omitted.

Query: // lookup clearance for `CNC(=O)c1cccc(F)c1Nc1nc(Nc2ccc3c(c2)OCCCN3)ncc1Cl`
Result: 34

# context switch: different molecule, same clearance
Query: // lookup clearance for `CCOC(=O)N1CCCOc2cc(Nc3ncc(Cl)c(Nc4c(F)cccc4C(=O)NC)n3)ccc21`
Result: 15.3
